# Test system: HCC1806 s.c. xenografts
# assay.info: HCC1806 s.c. breast cancer xenograft efficacy (tumor volume, relative tumor volume, tumor weight, TGI)
# Assay type: in vivo, BALB/c nude mice
# condition: 30 mg/kg P.O. BID, vs control vehicle, day 14
Output condition met for records whose Tumor Growth Inhibition D14 is lower than 30%, condition not met for records at or above 30%.

IN: Hello, I'm reviewing records and need to know if Tumor Growth Inhibition D14 of [2H]C([2H])([2H])c1cc2cnc(NC3([2H])C([2H])([2H])CN(S(C)(=O)=O)CC3([2H])[2H])nc2n([C@@H]2CCC[C@@]2(C)O)c1=O is below 30%. Could you check?
OUT: condition met

IN: Hello, I'm reviewing records and need to know if Tumor Growth Inhibition D14 of C[C@@]1(O)CCC[C@H]1n1c(=O)c(C(F)F)cc2cnc(NC3CCN(S(C)(=O)=O)CC3)nc21 [Comp. 5, reference compound] is below 30%. Could you check?
OUT: condition not met

IN: Hello, I'm reviewing records and need to know if Tumor Growth Inhibition D14 of [2H]C(F)(F)c1cc2cnc(NC3CCN(S(C)(=O)=O)CC3)nc2n([C@@H]2CCC[C@@]2(C)O)c1=O is below 30%. Could you check?
OUT: condition met

IN: Hello, I'm reviewing records and need to know if Tumor Growth Inhibition D14 of Cc1cc2cnc(NC3CCN(S(C)(=O)=O)CC3)nc2n([C@@H]2CCC[C@@]2(C)O)c1=O [Comp. 4, reference compound] is below 30%. Could you check?
OUT: condition met

IN: Hello, I'm reviewing records and need to know if Tumor Growth Inhibition D14 of [2H]C([2H])([2H])c1cc2cnc(NC3CCN(S(C)(=O)=O)CC3)nc2n([C@@H]2CCC[C@@]2(C)O)c1=O is below 30%. Could you check?
OUT: condition not met

====

Catalogue of Tumor Growth Inhibition D21 readings, one per entry.
# Tested on: HCC1806 s.c. xenografts
# assay.info: HCC1806 s.c. breast cancer xenograft efficacy (tumor volume, relative tumor volume, tumor weight, TGI)
# Assay type: in vivo, BALB/c nude mice
# condition: 30 mg/kg P.O. BID, vs control vehicle, day 21
Answer format: numeric, % implied, no suffix.

Cc1cc2cnc(NC3CCN(S(C)(=O)=O)CC3)nc2n([C@@H]2CCC[C@@]2(C)O)c1=O [Comp. 4, reference compound]	6.55
[2H]C([2H])([2H])c1cc2cnc(NC3([2H])C([2H])([2H])CN(S(=O)(=O)C([2H])([2H])[2H])CC3([2H])[2H])nc2n([C@@H]2CCC[C@@]2(C)O)c1=O	40.94

Next, consider the following compound.
IN: Would you mind telling me what Tumor Growth Inhibition D21 value was observed for [2H]C([2H])([2H])c1cc2cnc(NC3([2H])C([2H])([2H])CN(S(C)(=O)=O)CC3([2H])[2H])nc2n([C@@H]2CCC[C@@]2(C)O)c1=O ?
OUT: 31.27

====

Catalogue of Body weight D21 readings, one per entry.
# assay.info: Body weight in the HCC1806 xenograft study
# Assay type: in vivo, BALB/c nude mice
# condition: group mean, 30 mg/kg P.O. BID, day 21
Answer format: numeric, g implied, no suffix.

Worked examples follow.
[2H]C([2H])([2H])c1cc2cnc(NC3CCN(S(C)(=O)=O)CC3)nc2n([C@@H]2CCC[C@@]2(C)O)c1=O [Comp. 37]	18.17
Cc1cc2cnc(NC3CCN(S(C)(=O)=O)CC3)nc2n([C@@H]2CCC[C@@]2(C)O)c1=O [Comp. 4, reference compound]	20.80
[2H]C([2H])([2H])c1cc2cnc(NC3([2H])C([2H])([2H])CN(S(C)(=O)=O)CC3([2H])[2H])nc2n([C@@H]2CCC[C@@]2(C)O)c1=O [Comp. 164]	17.29

IN: Would you mind telling me what Body weight D21 value was observed for C[C@@]1(O)CCC[C@H]1n1c(=O)c(C(F)F)cc2cnc(NC3CCN(S(C)(=O)=O)CC3)nc21 [Comp. 5, reference compound] ?
OUT: 17.80

IN: Would you mind telling me what Body weight D21 value was observed for [2H]C(F)(F)c1cc2cnc(NC3CCN(S(C)(=O)=O)CC3)nc2n([C@@H]2CCC[C@@]2(C)O)c1=O [Comp. 28] ?
OUT: 16.80

IN: Would you mind telling me what Body weight D21 value was observed for [2H]C([2H])([2H])c1cc2cnc(NC3([2H])C([2H])([2H])CN(S(=O)(=O)C([2H])([2H])[2H])CC3([2H])[2H])nc2n([C@@H]2CCC[C@@]2(C)O)c1=O [Comp. 163] ?
OUT: 17.95

====

# assay.info: Body weight in the HCC1806 xenograft study
# Format: in vivo, BALB/c nude mice
# condition: group mean, 30 mg/kg P.O. BID, day 3
property.label: Body weight D3 (g)
Answer format: numeric, g implied, no suffix.

Worked examples follow.
[2H]C([2H])([2H])c1cc2cnc(NC3CCN(S(C)(=O)=O)CC3)nc2n([C@@H]2CCC[C@@]2(C)O)c1=O	18.23
[2H]C(F)(F)c1cc2cnc(NC3CCN(S(C)(=O)=O)CC3)nc2n([C@@H]2CCC[C@@]2(C)O)c1=O	17.81

Next, consider the following compound.
IN: Would you mind telling me what Body weight D3 value was observed for [2H]C([2H])([2H])c1cc2cnc(NC3([2H])C([2H])([2H])CN(S(C)(=O)=O)CC3([2H])[2H])nc2n([C@@H]2CCC[C@@]2(C)O)c1=O ?
OUT: 18.47

====

# assay.info: Pharmacokinetic profiling in mouse (i.v. and i.g.)
# Assay type: in vivo, male ICR mice
# condition: male, ICR, plasma, iv, i.v. 5 mg/kg
property.label: AUC(0-t) (ng·h/mL)
Answer format: numeric, ng·h/mL implied, no suffix.

[2H]C([2H])([2H])c1cc2cnc(NC3CCN(S(C)(=O)=O)CC3)nc2n([C@@H]2CCC[C@@]2(C)O)c1=O	1290

IN: Would you mind telling me what AUC(0-t) value was observed for C[C@@]1(O)CCC[C@H]1n1c(=O)c(C(F)F)cc2cnc(NC3CCN(S(C)(=O)=O)CC3)nc21 [Comp. 5, reference compound] ?
OUT: 1360

IN: Would you mind telling me what AUC(0-t) value was observed for Cc1cc2cnc(NC3CCN(S(C)(=O)=O)CC3)nc2n([C@@H]2CCC[C@@]2(C)O)c1=O [Comp. 4, reference compound] ?
OUT: 967

====

# assay.info: Pharmacokinetic profiling in mouse (i.v. and i.g.)
# Type: in vivo, male ICR mice
# condition: male, ICR, plasma, po, i.g. 30 mg/kg
property.label: AUC(0-t) (ng·h/mL)
Answer format: numeric, ng·h/mL implied, no suffix.

Cc1cc2cnc(NC3CCN(S(C)(=O)=O)CC3)nc2n([C@@H]2CCC[C@@]2(C)O)c1=O [Comp. 4, reference compound]	245
[2H]C([2H])([2H])c1cc2cnc(NC3CCN(S(C)(=O)=O)CC3)nc2n([C@@H]2CCC[C@@]2(C)O)c1=O [Comp. 37]	605

Next, consider the following compound.
IN: Would you mind telling me what AUC(0-t) value was observed for C[C@@]1(O)CCC[C@H]1n1c(=O)c(C(F)F)cc2cnc(NC3CCN(S(C)(=O)=O)CC3)nc21 [Comp. 5, reference compound] ?
OUT: 1190

====

# assay.info: Pharmacokinetic profiling in mouse (i.v. and i.g.)
# Format: in vivo, male ICR mice
# condition: male, ICR, plasma, po, i.g. 30 mg/kg, calculated by using the AUC0-t, read-out: F (bioavailability)
property.label: bioavailability (%)
Answer format: numeric, % implied, no suffix.

C[C@@]1(O)CCC[C@H]1n1c(=O)c(C(F)F)cc2cnc(NC3CCN(S(C)(=O)=O)CC3)nc21 [Comp. 5, reference compound]	14.6

IN: Would you mind telling me what bioavailability value was observed for [2H]C([2H])([2H])c1cc2cnc(NC3CCN(S(C)(=O)=O)CC3)nc2n([C@@H]2CCC[C@@]2(C)O)c1=O ?
OUT: 7.8

IN: Would you mind telling me what bioavailability value was observed for Cc1cc2cnc(NC3CCN(S(C)(=O)=O)CC3)nc2n([C@@H]2CCC[C@@]2(C)O)c1=O [Comp. 4, reference compound] ?
OUT: 4.2

====

# assay.info: Pharmacokinetic profiling in mouse (i.v. and i.g.)
# Format: in vivo, male ICR mice
# condition: male, ICR, plasma, iv, i.v. 5 mg/kg
Catalogue of clearance readings, one per entry.
Answer format: numeric, L/h/kg implied, no suffix.

Worked examples follow.
C[C@@]1(O)CCC[C@H]1n1c(=O)c(C(F)F)cc2cnc(NC3CCN(S(C)(=O)=O)CC3)nc21 [Comp. 5, reference compound]	3.67
[2H]C([2H])([2H])c1cc2cnc(NC3CCN(S(C)(=O)=O)CC3)nc2n([C@@H]2CCC[C@@]2(C)O)c1=O [Comp. 37]	3.88

Next, consider the following molecule.
IN: Would you mind telling me what clearance value was observed for Cc1cc2cnc(NC3CCN(S(C)(=O)=O)CC3)nc2n([C@@H]2CCC[C@@]2(C)O)c1=O [Comp. 4, reference compound] ?
OUT: 5.17

This collection of values is drawn from patent US20230242526A1.
